# system_tested: hTA1 I290N (Homo sapiens, UniProt Q96RJ0, I290N)
# Construct: expressed in transfected cells; host or cells: HEK293T
# Sequence (Q96RJ0 whole entry I290N): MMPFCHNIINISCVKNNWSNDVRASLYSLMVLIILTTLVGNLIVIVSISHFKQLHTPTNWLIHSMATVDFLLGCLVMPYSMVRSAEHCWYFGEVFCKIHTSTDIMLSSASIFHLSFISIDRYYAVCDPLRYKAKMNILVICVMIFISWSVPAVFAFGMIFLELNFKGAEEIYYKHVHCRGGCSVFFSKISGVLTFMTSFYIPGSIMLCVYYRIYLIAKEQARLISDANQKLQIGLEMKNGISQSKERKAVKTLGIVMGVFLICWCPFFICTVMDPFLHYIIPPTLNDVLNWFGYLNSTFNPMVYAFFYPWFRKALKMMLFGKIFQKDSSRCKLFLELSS
# protocol: GloSensor cAMP accumulation assay, I290N mutant;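 note: cells transiently co-expressing hTA1 and the GloSensor cAMP biosensor, luminescence read 30 min after compound addition at room temperature, efficacy scaled to the maximal β-PEA response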
# Format: cell-based
# experimental_context: hTA1 I290N mutant; β-PEA set to 100; each grid row a separate experiment, 3 replicates
The compounds listed here are annotated with their Emax values, Mean.

{"compound": "CCC(CC1COC(N)=N1)c1ccccc1 (stereo not shown) [Ro5256390]", "Emax values, Mean": 96.7119}
{"compound": "NCCc1ccccc1 [β-PEA, β-phenethylamine]", "Emax values, Mean": 100}
{"compound": "CCc1[nH]nc(C(=O)Nc2ccc([C@H]3CNCCO3)cc2)c1C [ralmitaront]", "Emax values, Mean": 38.2871}
{"compound": "NCCc1ccc(O)cc1 [TYR, tyramine]", "Emax values, Mean": 99.2249}
